test system: HEK-293T; assay: Multiplex assay against HEK293T; type: toxicity, cell-based; settings: human, 48 h, 1 µM, compound concentration 1 uM, replicate 1
Assign Population Healthy Nuclei (%) to each entry below.
Give just the number in %; leave the unit off.

Quick note, Population Healthy Nuclei (%) for COc1c(Nc2ccc(S(C)(=O)=O)nc2C)ncnc1OC1CCN(C(=O)OC(C)C)CC1 landed at 78

Quick note, Population Healthy Nuclei (%) for CN1CCC(C(=O)c2cccc(NC(=O)c3c(F)cc(F)cc3F)n2)CC1 landed at 80

Quick note, Population Healthy Nuclei (%) for CC(C)C[C@H](CO)Nc1nc(S[C@@H](C)c2ccccc2)nc2nc(N)sc12 landed at 78

Quick note, Population Healthy Nuclei (%) for CN1CCN(c2ccc(Nc3c4ccccc4nc4ccccc34)cc2)CC1.Cl.Cl.O landed at 82

Quick note, Population Healthy Nuclei (%) for C=CCN1C[C@H](C(=O)N(CCCN(C)C)C(=O)NCC)C[C@@H]2c3cccc4[nH]cc(c34)C[C@H]21 landed at 80

Quick note, Population Healthy Nuclei (%) for CCC(=O)OCC(=O)[C@@]1(OC(=O)CC)[C@@H](C)C[C@H]2[C@@H]3CCC4=CC(=O)C=C[C@]4(C)[C@@]3(Cl)[C@@H](O)C[C@@]21C [BECLOMETHASONE DIPROPIONATE] landed at 78

Quick note, Population Healthy Nuclei (%) for COc1cc(OC2CCN(C(C)=O)CC2)ccc1C(=O)N1CCC(N2C(=O)OCc3ccccc32)CC1 landed at 78

====

Assign Population Membrane Permeable-Phenotype (%) to each entry below.
system: Fibroblast; assay: Multiplex assay against human fibroblast; format: toxicity, cell-based; details: 24 h, 10 µM, compound concentration 10 uM, replicate 1
Give just the number in %; leave the unit off.

Summary: CCCCC[C@H](O)/C=C/[C@H]1[C@H](O)CC(=O)[C@@H]1CCCCCCC(=O)O , Fibroblast, Population Membrane Permeable-Phenotype (%) = 0

Summary: COc1ccc2c(c1OCc1ccccc1)C[C@@H](C(=O)O)N(C(=O)C(c1ccccc1)c1ccccc1)C2 , Fibroblast, Population Membrane Permeable-Phenotype (%) = 1

Summary: Cl.Cl.OCCOCCN1CCN(C(c2ccccc2)c2ccc(Cl)cc2)CC1 (centres undefined) [HYDROXYZINE HYDROCHLORIDE] , Fibroblast, Population Membrane Permeable-Phenotype (%) = 1

Summary: COc1cc2nc(N3CCN(C(=O)COc4c(OC)cccc4C(C)C)CC3)nc(N)c2cc1OC.Cl.Cl , Fibroblast, Population Membrane Permeable-Phenotype (%) = 0

Summary: O=C(Nc1cc(-c2ccccc2)nn1-c1ccccc1F)c1ccc([N+](=O)[O-])cc1 , Fibroblast, Population Membrane Permeable-Phenotype (%) = 1

Summary: Nc1nc(CC(=O)Nc2ccc(CCNC[C@H](O)c3ccccc3)cc2)cs1 , Fibroblast, Population Membrane Permeable-Phenotype (%) = 0

Summary: COc1c(Nc2ccc(S(C)(=O)=O)nc2C)ncnc1OC1CCN(C(=O)OC(C)C)CC1 , Fibroblast, Population Membrane Permeable-Phenotype (%) = 0

Summary: COCCn1c(C)c(C)s/c1=N\C(=O)C1C(C)(C)C1(C)C , Fibroblast, Population Membrane Permeable-Phenotype (%) = 0

Summary: Nc1nc(-c2ccco2)c2cnn(Cc3ccccc3F)c2n1 , Fibroblast, Population Membrane Permeable-Phenotype (%) = 1

====

Assign Population Hoechst High Intensity Objects (%) to each entry below.
system: U2OS; experiment: Multiplex assay against U2OS; format: toxicity, cell-based; details: human, 48 h, 10 µM, compound concentration 10 uM, replicate 1
Number plus unit, in that order.

Quick note, Population Hoechst High Intensity Objects (%) for OCCCNc1cc(-c2ccnc(Nc3cccc(Cl)c3)n2)ccn1 landed at 21%

Quick note, Population Hoechst High Intensity Objects (%) for COc1cc(OC2CCN(C(C)=O)CC2)ccc1C(=O)N1CCC(N2C(=O)OCc3ccccc32)CC1 landed at 5%

Quick note, Population Hoechst High Intensity Objects (%) for CSc1nc(NC2CCCC2)c([N+](=O)[O-])c(NC2CCCC2)n1 [GS-39783] landed at 2%

Quick note, Population Hoechst High Intensity Objects (%) for COc1ccc2c(c1OCc1ccccc1)C[C@@H](C(=O)O)N(C(=O)C(c1ccccc1)c1ccccc1)C2 [OLODANRIGAN] landed at 1%

Quick note, Population Hoechst High Intensity Objects (%) for CN(C)C/C=C/C(=O)Nc1ccc(C(=O)N2CCCC(Nc3ncc(Cl)c(-c4c[nH]c5ccccc45)n3)C2)cc1 (configuration not stated) landed at 15%

Quick note, Population Hoechst High Intensity Objects (%) for C[C@@H]1CC(=O)Nc2cccc(-c3ccc4c(c3)c(-c3cnn(C)c3)nn4C)c2N1 landed at 3%

Quick note, Population Hoechst High Intensity Objects (%) for Cc1cc(O)c(-c2ccc([C@@H](C)CN(C)C)cc2)c2c1[nH]c(=O)c1sccc12 landed at 20%

Quick note, Population Hoechst High Intensity Objects (%) for COc1cc(Nc2ncc3c(n2)-c2ccc(Cl)cc2C(c2c(F)cccc2OC)=NC3)ccc1C(=O)O [ALISERTIB] landed at 9%

Quick note, Population Hoechst High Intensity Objects (%) for Cc1c(Cc2ccc3ccccc3n2)c2cc(F)ccc2n1CC(=O)O [TIMAPIPRANT] landed at 0%

Quick note, Population Hoechst High Intensity Objects (%) for COCCCN1CCC(NC(=O)c2cc(Cl)c(N)c3c2OCC3)CC1 [PRUCALOPRIDE] landed at 1%

Quick note, Population Hoechst High Intensity Objects (%) for C=CCN1C[C@H](C(=O)N(CCCN(C)C)C(=O)NCC)C[C@@H]2c3cccc4[nH]cc(c34)C[C@H]21 [CABERGOLINE] landed at 3%

Quick note, Population Hoechst High Intensity Objects (%) for CCCCCCNC(=O)Nc1ccc(S(=O)(=O)Nc2ccc(CCNC[C@H](O)COc3ccc(O)cc3)cc2)cc1 [L-755507] landed at 2%

Quick note, Population Hoechst High Intensity Objects (%) for O=c1ccc2ccc(OCCCCN3CCN(c4cccc5sccc45)CC3)cc2[nH]1 [BREXPIPRAZOLE] landed at 26%

Quick note, Population Hoechst High Intensity Objects (%) for Nc1nc(CC(=O)Nc2ccc(CCNC[C@H](O)c3ccccc3)cc2)cs1 [MIRABEGRON] landed at 2%

Quick note, Population Hoechst High Intensity Objects (%) for CCCCC[C@H](O)/C=C/[C@H]1[C@H](O)CC(=O)[C@@H]1CCCCCCC(=O)O [ALPROSTADIL] landed at 0%

Quick note, Population Hoechst High Intensity Objects (%) for COC(c1ccccc1)(c1ccccc1)[C@H](Oc1nc(C)cc(C)n1)C(=O)O [AMBRISENTAN] landed at 3%

Quick note, Population Hoechst High Intensity Objects (%) for N[C@](CC1c2ccccc2Oc2ccccc21)(C(=O)O)[C@H]1C[C@@H]1C(=O)O landed at 1%

====

test system: U2OS; experiment: Multiplex assay against U2OS; format: toxicity, cell-based; conditions: human, 24 h, 10 µM, compound concentration 10 uM, replicate 1
Non-standard residues stand in square brackets, D forms with d. Residues, ends and D or L forms follow the SMILES beside them.
Note to self: class labels come from recorded Population Healthy Nuclei (%), ranges listed here: lo (below 60%), med (60% to below 70%), hi (70% or more)

Quick check: band for O=c1ccc2ccc(OCCCCN3CCN(c4cccc5sccc45)CC3)cc2[nH]1
lo

Quick check: band for COc1cc(Nc2ncc3c(n2)-c2ccc(Cl)cc2C(c2c(F)cccc2OC)=NC3)ccc1C(=O)O
lo

Quick check: band for Cc1nn(C)c2nc(NNC(=O)Nc3cc(Cl)nc(Cl)c3)cc(C(C)C)c12
lo

Quick check: band for CCCCC[C@H](O)/C=C/[C@H]1[C@H](O)CC(=O)[C@@H]1CCCCCCC(=O)O
hi

Quick check: band for CC(C)C[C@@H]1NC(=O)[C@@H](C(C)C)NC(=O)[C@@H]2CCCN2C(=O)[C@@H](CC(=O)O)NC(=O)[C@@H](Cc2c[nH]c3ccccc23)NC1=O [BQ-123] (cyclo(L[dW][dD]P[dV]))
med

Quick check: band for CCn1c(-c2nc3cc(C(=O)N4CCCC(N)C4)ccc3n2C)cc2ccccc21.Cl (stereo not drawn)
lo

Quick check: band for CCc1nn2c(C)cc(C)nc2c1Cc1ccc(-c2nnc(C3CCNCC3)o2)cc1
lo

Quick check: band for COc1cc2nc(N3CCN(C(=O)COc4c(OC)cccc4C(C)C)CC3)nc(N)c2cc1OC.Cl.Cl
lo

Quick check: band for CSc1nc(NC2CCCC2)c([N+](=O)[O-])c(NC2CCCC2)n1
med

Quick check: band for COc1cc(C(=O)N2CC[C@@H](O)[C@@H](N)C2)cc2nc(-c3cc4ccccc4n3CC3CC3)n(C)c12.Cl
lo

Quick check: band for N[C@](CC1c2ccccc2Oc2ccccc21)(C(=O)O)[C@H]1C[C@@H]1C(=O)O
hi

Quick check: band for Cc1c(Cc2ccc3ccccc3n2)c2cc(F)ccc2n1CC(=O)O
med

Quick check: band for COCCn1c(C)c(C)s/c1=N\C(=O)C1C(C)(C)C1(C)C
lo

Quick check: band for Nc1nc(CC(=O)Nc2ccc(CCNC[C@H](O)c3ccccc3)cc2)cs1
hi
